Some variants, each annotated with its measured protein stability index.
B1: TCAP (parent)
chain: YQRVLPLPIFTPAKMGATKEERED

Variants of: B1
assayDetails: protein stability index of a GFP-peptide fusion (GPS, HEK-293T) (PSI 1-6); higher = more stable;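 also: lentivirally expressed fusions sorted by FACS into six bins by GFP to DsRed ratio, PSI derived from sequencing read proportions per bin multiplied by bin number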
runParameters: c terminus: a fixed tail appended
Please reply with the value in numeric form only.

[[record]]
primarysequence = "YQRVLPLPIFTPAKMGATKEEVED"
experimentalendpoint = "protein stability index"
reportedmeasurement = 2.2

[[record]]
primarysequence = "YQRVLPLPIFTPATMGATKEERED"
experimentalendpoint = "protein stability index"
reportedmeasurement = 1.99

[[record]]
primarysequence = "YQRVLPLPIFTPAKMHATKEERED"
experimentalendpoint = "protein stability index"
reportedmeasurement = 1.34


Ask: Give the measured protein stability index of YQRVLPLPITTPAKMGATKEERED .
Reply: 4.04

Ask: Reported protein stability index for YQRGLPLPIFTPAKMGATKEERED : what is it?
Reply: 2.82

Ask: Looking for the measured protein stability index of KQRVLPLPIFTPAKMGATKEERED , can you help?
Reply: 5.06

Ask: Can you look up the measured protein stability index of YQRVLPLPIFTPAKMGAKKEERED for me?
Reply: 2.25

Ask: Which value of protein stability index has been reported for YQRVLPLPIFTPAKMGDTKEERED in the records?
Reply: 2.1

Ask: Which protein stability index is listed for TQRVLPLPIFTPAKMGATKEERED ?
Reply: 4.79

Ask: // lookup protein stability index for YQRVLPLPIFTPAKMGACKEERED
Reply: 2.12

Ask: Requested read-out: protein stability index. Entry: YQRVLPLPIFTPAKMGATIEERED
Reply: 2.06

Ask: If you can, please state the reported protein stability index value of YQRVEPLPIFTPAKMGATKEERED .
Reply: 2.42

Ask: Fill blank: measured protein stability index of the variant YQRVLPLPIFCPAKMGATKEERED is ____.
Reply: 1.79

Ask: Tell me the measured protein stability index of YQRVLPLPIFTPRKMGATKEERED , please.
Reply: 2.44

Ask: Please give the measured protein stability index for this variant: YQRVLPLPIVTPAKMGATKEERED
Reply: 3.65

Ask: Find the recorded protein stability index belonging to YQRVLPLPIFTPAKMGARKEERED and report it.
Reply: 2.4

Values were extracted from the supplement of paper PMC10567573.
